Sourced from the NTF2 design screens of Basanta et al. (2020)

- run.description: protease stability score; higher = more stable; yeast display proteolysis, trypsin and chymotrypsin;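 also: relative to predicted unfolded state with 0 unfolded-like and 1 meaning tenfold more protease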
Label criterion not met if protease stability score falls below 1; label criterion met in every other case.

query.sequence	cat
SREEKEIKEIWELLVRSWLTGDEETLTHLLDPNARSVINGREYHGRETIAHELTRHLYELRIKDIELHHVDIIGDKVKIDSRVEYHFNGRETELKVEIVALKINGRWRLKDNIIK	criterion met
TESEEDAEWAFRILEHVLETGDEHLLRVLLDPHVRVHIDGRNIHGRENVIRELTEIRIHVEMHLEHVDLQGDKMHIDLRVHIIIIFNGQEKRRTHRMEMIVFKYDGKWFINEIHFH	criterion met
SEDTRLKEEFLRRVLESEHTGDFESLQEMLDPNTRIEFNGQELIGREEAERILHQARIHDVKIKSMRLIDGRIELNGVLDGNFNGRRRHLEVRIYITKIDGRWVLESIEIE	criterion met
REDEEQMSRFIKEMIHLLRTGDEDRLHELIDPHTRLDFDGKEIHGREEWSQFLKEIRFRRFEVKDFEIVNGVANVDGKMHGEFDGQRFTTRVHIYNVKINGRWVHKWEEIG	criterion met
DDMEEMAKEVFREWFEIVETGDEEKLLKLIDPNTRVDINGQEVHGREDISRITSKLIRELGVKHIRSEVKSFDIVGNKIRVRGLEIRDVGDKHKEIHTHFFIMKIDGKWVITNMHFH	criterion met
SEEDKWIKDMTHLFLHWFLTGDEEIFNHFADPNVRVQYGDKWRVGRERVSEFNEFVLRELRFKEIRLKNLSTQGEKATSIVRVDVQFDGKEIDIEIRIHIVVVDGVLKQVEIRET	criterion not met
NEDEEVERKWLEFIRHALHTGDERILHELLDPHAQLIYGDKHIIGREEMTRQFIELGVDHMEDKRVHHQGDKIHQDGTEHVNGKERKVRFVVAKVNGRWIWERMHVI	criterion met
SEWDRLMKRIAEDITTALQTGDEDRMHELFDPHARMILLIGDFELHYHGMHEISRVLEEHLRRYDHLEWHIRHVDTQGNKVRVESEMRLIIGDKSETRDYRIILIVINGRNKSVEFRVH	criterion met
SDSDHDLEHLLELLMRAYETGNEEEIRRLVDPNARWDINGVELHGWKVMHKFLREMRPTRIRIIIDDSETIGDKMFVDGTIRLDVHIGDKLIHTERRSRLVHRKVDGKWTQTSVIID	criterion not met
SDEEERLERVSELLLHAIETGDWRILAELADPHVRLEIGDKEIHGREIVVDLIRKEYDKYKNMRITNEDFDVQGNKTEWHVNIHIGDKEVRIHIYNVVINGKIRRRHIHIR	criterion met
SEEEELVRQWLERTTEALLTGDEEYVLHLADPRTRFDVGDKEIHGMEEFLKRHLQLRIHHMHWEVTEIRLIDGVARSTGTLEIIMQQGDKRFRVRIRSEVISEKIDGRWRLRSIKIH	criterion met
